Readings of IC50 for the listed compounds
- target: Kv1.3 (Homo sapiens)
- Construct: expressed in transfected cells; host or cells: CHO (Kv1.3/CHO)
- experiment.notes: Electrophysiology: planar patch-clamp of Kv1.3 currents, IC50 from steady state current amplitude
- Type: cell-based
- measurement.parameters: Kv1.3 electrophysiology, results according to Method D1, read-out: IC50 (Kv1.3 ephys steady state)
measured.metric: IC50

INSERT INTO measurements (compound, measured_metric, result) VALUES
  ('O=C(CS(=O)(=O)c1ccccc1)N(Cc1cccnn1)C(c1ccc(OC(F)F)cc1)C1CC1 (stereo not drawn) [Example 306]', 'IC50', '200 to 1000 nM'),
  ('CCS(=O)(=O)c1cccc(CN(C(=O)C2CC2c2ccc(F)cc2)C(c2ccc(Cl)cc2)C2CC2)n1 (stereo not drawn) [Example 253]', 'IC50', '< 50 nM'),
  ('CCC(c1ccc(S(C)(=O)=O)cc1)N(Cc1ccc(C(F)(F)F)nc1)C(=O)C1CC1c1ccc(F)cc1F (stereo not drawn) [Example 128]', 'IC50', '50 to 200 nM'),
  ('CN1CC(C(c2ccc(OC(F)(F)F)cc2)N(Cc2ccc(F)cn2)C(=O)C2CC2c2ccc(F)cc2)C1 (stereo not drawn) [Example 159]', 'IC50', '200 to 1000 nM'),
  ('CCS(=O)(=O)c1cccc(C(C2CC2)N(Cc2cccnn2)C(=O)C2CC2c2cccc(C(F)(F)F)c2)c1 (stereo not drawn) [Example 226]', 'IC50', '200 to 1000 nM'),
  ('CCS(=O)(=O)c1ccc(C(C2CC2)N(Cc2ccc(F)cn2)C(=O)C2CC2c2ccc(F)cc2F)cc1 (stereo not drawn) [Example 229]', 'IC50', '50 to 200 nM'),
  ('O=C(CS(=O)(=O)c1ccc(F)cc1)N(Cc1ccccn1)C(c1ccccc1OCC(F)F)C1CC1 (stereo not drawn) [Example 329]', 'IC50', '50 to 200 nM'),
  ('O=C(CS(=O)(=O)c1ccccc1F)N(Cc1ccc(C(F)(F)F)nc1)C(c1ccc(OC(F)F)cc1)C1CC1 (stereo not drawn) [Example 299]', 'IC50', '50 to 200 nM'),
  ('O=C(C1CC1c1ccc(F)c(F)c1)N(Cc1cccnn1)C(c1ccc(OC(F)F)cc1)C1CC1 (stereo not drawn) [Example 180]', 'IC50', '50 to 200 nM'),
  ('CCS(=O)(=O)c1cccc(C(C2CC2)N(C(=O)C2CC2c2ccc(F)cc2)C2CCC(F)(F)CC2)c1 (stereo not drawn) [Example 219]', 'IC50', '50 to 200 nM'),
  ('CC(CC(=O)N(Cc1cccnn1)C(c1ccc(OC(F)F)cc1)C1CC1)c1ccc(F)cc1 (stereo not drawn) [Example 262]', 'IC50', '< 50 nM'),
  ('CC(C)S(=O)(=O)c1ccc(C(C2CC2)N(Cc2ncccc2F)C(=O)C2CC2c2ccc(F)cc2)cc1 (stereo not drawn) [Example 234]', 'IC50', '200 to 1000 nM'),
  ('CC(C)S(=O)(=O)c1cccc(C(C2CC2)N(Cc2ncccc2F)C(=O)C2CC2c2ccc(F)cc2)c1 (stereo not drawn) [Example 246]', 'IC50', '200 to 1000 nM'),
  ('CCS(=O)(=O)c1cccc(C(C2CC2)N(Cc2cccnn2)C(=O)C2CC2c2cccc(C(F)(F)F)c2)c1 (stereo not drawn) [Example 225]', 'IC50', '200 to 1000 nM'),
  ('N#Cc1cccc(C(C2CC2)N(Cc2ncccc2F)C(=O)C2CC2c2ccc(F)cc2)c1 (stereo not drawn) [Example 251]', 'IC50', '200 to 1000 nM');

---

- target: Kv1.3 (Homo sapiens, UniProt P22001)
- Sequence (P22001 whole entry): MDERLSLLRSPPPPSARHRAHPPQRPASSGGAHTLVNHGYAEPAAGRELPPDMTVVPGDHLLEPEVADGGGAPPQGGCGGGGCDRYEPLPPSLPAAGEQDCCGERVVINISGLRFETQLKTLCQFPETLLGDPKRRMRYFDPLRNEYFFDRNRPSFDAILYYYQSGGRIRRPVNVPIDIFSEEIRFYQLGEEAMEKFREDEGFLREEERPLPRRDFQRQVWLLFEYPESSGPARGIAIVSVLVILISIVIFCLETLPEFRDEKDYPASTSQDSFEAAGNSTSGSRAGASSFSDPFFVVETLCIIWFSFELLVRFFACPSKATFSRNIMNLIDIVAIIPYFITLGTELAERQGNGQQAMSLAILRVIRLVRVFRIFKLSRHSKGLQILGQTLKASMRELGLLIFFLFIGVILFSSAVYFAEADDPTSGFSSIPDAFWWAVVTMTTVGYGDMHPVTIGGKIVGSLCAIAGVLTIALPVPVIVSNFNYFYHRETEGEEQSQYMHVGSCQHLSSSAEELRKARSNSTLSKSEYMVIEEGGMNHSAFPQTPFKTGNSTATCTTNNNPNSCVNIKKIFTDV
- experiment.notes: Electrophysiology: planar patch-clamp of Kv1.3 currents, IC50 from steady state current amplitude
- measurement.parameters: Kv1.3 electrophysiology, results according to Method D1, read-out: IC50 (Kv1.3 ephys steady state)
pIC50: −log10 of the molar value.
Reported pIC50 by item:
measured.metric: pIC50

INSERT INTO results (compound, measured_metric, result) VALUES
  ('CCC(c1ccc(S(C)(=O)=O)cc1)N(Cc1ccc(C(F)(F)F)nc1)C(=O)C1CC1c1ccc(F)cc1 (centres unmarked) [Example 120]', 'pIC50', '6.00 to 6.70'),
  ('O=C(C1CC1c1ccccc1OC(F)(F)F)N(Cc1cccnn1)C(c1ccc(OC(F)F)cc1)C1CC1 (centres unmarked) [Example 188]', 'pIC50', '6.70 to 7.30'),
  ('CC(CC(=O)N(Cc1ccc(F)cn1)C(c1ccc(F)cc1F)C1CCN(C)CC1)c1ccc(F)cc1 (centres unmarked) [Example 271]', 'pIC50', '6.00 to 6.70'),
  ('COc1ccccc1[C@H](C)N(Cc1ccccn1)C(=O)CCc1ccc(F)cc1 [Example 55]', 'pIC50', '6.00 to 6.70'),
  ('O=C(C1CC1c1ccc(F)cc1F)N(Cc1cccnn1)C(c1ccc(OC(F)F)cc1)C1CC1 (centres unmarked) [Example 182]', 'pIC50', '6.70 to 7.30'),
  ('CSc1cccc(CN(C(=O)C2CC2c2ccc(F)cc2)C(c2ccc(Cl)cc2)C2CC2)n1 (centres unmarked) [Example 254]', 'pIC50', '6.70 to 7.30'),
  ('CCS(=O)(=O)c1cccc(C(C2CC2)N(Cc2cncc(F)c2)C(=O)C2CC2c2ccc(F)cc2)c1 (centres unmarked) [Example 214]', 'pIC50', '6.70 to 7.30'),
  ('CCS(=O)(=O)c1ccc(C(C2CC2)N(Cc2ccc(F)cn2)C(=O)CC(C)c2ccccc2C(F)(F)F)cc1 (centres unmarked) [Example 269]', 'pIC50', '6.70 to 7.30'),
  ('O=C(CC1(c2ccc(F)cc2)CC1)N(Cc1ccccn1)[C@@H](c1ccc(Cl)cc1)C1CC1 (single isomer, unassigned) [Example 95]', 'pIC50', '> 7.30'),
  ('O=C(CS(=O)(=O)c1cccc(C(F)(F)F)c1)N(Cc1ccccn1)C(c1ccc(Cl)cc1)C1CC1 (centres unmarked) [Example 294]', 'pIC50', '6.70 to 7.30'),
  ('CC(C)S(=O)(=O)c1cccc(C(C2CC2)N(Cc2ccc(F)cn2)C(=O)C2CC2c2ccc(F)cc2)c1 (centres unmarked) [Example 243]', 'pIC50', '6.70 to 7.30'),
  ('Cn1cncc1CN(C(=O)C1CC1c1ccc(F)cc1)C(c1ccc(OC(F)F)cc1)C1CC1 (centres unmarked) [Example 189]', 'pIC50', '6.00 to 6.70'),
  ('CCC(c1ccc(S(C)(=O)=O)cc1)N(Cc1cccnn1)C(=O)C1CC1c1ccc(F)cc1 (centres unmarked) [Example 124]', 'pIC50', '6.00 to 6.70'),
  ('CCC(c1ccc(S(C)(=O)=O)cc1)N(Cc1cccnn1)C(=O)C1CC1c1ccc(F)cc1 (centres unmarked) [Example 125]', 'pIC50', '5.70 to 6.00'),
  ('O=C(C1CC1c1ccc(F)cc1)N(Cc1ncccc1F)C(c1ccc(F)cc1)C1CNC1 (centres unmarked) [Example 157]', 'pIC50', '6.00 to 6.70'),
  ('CC(C)S(=O)(=O)c1cccc(C(C2CC2)N(Cc2ncccc2F)C(=O)C2CC2c2ccc(F)cc2)c1 (centres unmarked) [Example 245]', 'pIC50', '6.00 to 6.70'),
  ('O=C(C1CC1c1ccc(F)cc1)N(Cc1ccccn1)C(c1ccc(Cl)cc1)C1CC1 (centres unmarked) [Example 10]', 'pIC50', '6.70 to 7.30'),
  ('CC(C)S(=O)(=O)c1ccc(C(C2CC2)N(Cc2cccnn2)C(=O)C2CC2c2ccc(F)cc2)cc1 (centres unmarked) [Example 237]', 'pIC50', '6.70 to 7.30'),
  ('CC(C)S(=O)(=O)c1ccc(C(C2CC2)N(Cc2cccnn2)C(=O)C2CC2c2ccc(F)cc2)cc1 (centres unmarked) [Example 236]', 'pIC50', '6.70 to 7.30'),
  ('CC(C)S(=O)(=O)c1cccc(C(C2CC2)N(Cc2ccc(F)cn2)C(=O)C2CC2c2ccc(F)cc2)c1 (centres unmarked) [Example 242]', 'pIC50', '6.70 to 7.30'),
  ('O=C(C1CC1c1ccc(F)cc1)N(CCN1CCCC(F)(F)C1)C(c1ccc(OC(F)F)cc1)C1CC1 (centres unmarked) [Example 186]', 'pIC50', '6.00 to 6.70'),
  ('O=C(CS(=O)(=O)c1ccc(F)cc1)N(Cc1ncccc1F)C(c1ccc(OC(F)F)cc1)C1CC1 (centres unmarked) [Example 309]', 'pIC50', '6.70 to 7.30'),
  ('CCS(=O)(=O)c1cccc([C@H](C2CC2)N(Cc2ccc(C(F)(F)F)nc2)C(=O)[C@@H]2C[C@H]2c2ccc(F)cc2)c1 [Example 100]', 'pIC50', '6.70 to 7.30'),
  ('CC(C)S(=O)(=O)c1cccc(C(C2CC2)N(Cc2cccnn2)C(=O)C2CC2c2ccc(F)cc2)c1 (centres unmarked) [Example 240]', 'pIC50', '6.00 to 6.70'),
  ('CCS(=O)(=O)c1cccc(C(C2CC2)N(Cc2ccccn2)C(=O)C(C)(C)S(=O)(=O)c2ccccc2)c1 (centres unmarked) [Example 328]', 'pIC50', '6.00 to 6.70'),
  ('O=C(CS(=O)(=O)c1ccc(F)cc1)N(Cc1ccc(C(F)(F)F)nc1)C(c1ccccc1OCC(F)F)C1CC1 (centres unmarked) [Example 330]', 'pIC50', '6.70 to 7.30'),
  ('CC(CC(=O)N(Cc1ccccn1)C(c1ccc2c(c1)S(=O)(=O)C(C)(C)O2)C1CC1)c1ccc(F)cc1 (single isomer, unassigned) [Example 74]', 'pIC50', '> 7.30'),
  ('CC(C)S(=O)(=O)c1ccc(C(C2CC2)N(Cc2ccc(F)cn2)C(=O)C2CC2c2ccc(F)cc2)cc1 (centres unmarked) [Example 239]', 'pIC50', '6.00 to 6.70'),
  ('CC(C)C(c1ccc(OC(F)F)cc1)N(Cc1cccnn1)C(=O)C1CC1c1ccc(F)cc1 (centres unmarked) [Example 113]', 'pIC50', '6.00 to 6.70');
